B1: Far upstream element-binding protein 2, residues 142 to 214; numbered along this chain, Q92945 (parent)
chain: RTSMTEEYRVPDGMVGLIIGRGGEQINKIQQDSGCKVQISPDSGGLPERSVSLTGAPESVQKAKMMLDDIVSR

variants of: B1; assay: abundance fitness (aPCA) (normalised: wild type 0, dead -1); higher = more abundant; growth selection in yeast, the domain comes from the species named; settings: Homo sapiens
I'd appreciate it if you could supply abundance fitness values for the items below.

The reported value for RTSMTEEYRVPDGMVGLIIGRGGEQINKIQQDSGCKVQISPDSGGLPERSVSLTGAVESVQKAKMMLDDIVSR [P57V] in terms of abundance fitness is -0.192

The reported value for RTSMTEEYRVPDGMVGLIIGRGGEQINKIQQDSGCKVQISPDSGGLPERSVSLWGAPESVQKAKMMLDDIVSR [T54W] in terms of abundance fitness is -0.393

The reported value for RTSMTEEYRVPDGMVGLIIGRGGEQIIKIQQDSGCKVQISPDSGGLPERSVSLTGAPESVQKAKMMLDDIVSR [N27I] in terms of abundance fitness is -0.109

The reported value for RTSMTEEYRVPDGMVGLIIGRGGEQINKIQQDSGCKVQISPDSGGLPERSVSLTGAGESVQKAKMMLDDIVSR [P57G] in terms of abundance fitness is -0.434

The reported value for RTSMTEEYRVPDGMVGLIIGRGGEQINKIQQDSGCKVQISPDSGGLPERSVSLTGAPESVDKAKMMLDDIVSR [Q61D] in terms of abundance fitness is -0.168

The reported value for RTSMTEEYRVPDGMVGLIIGRGGEQINKIQQMSGCKVQISPDSGGLPERSVSLTGAPESVQKAKMMLDDIVSR [D32M] in terms of abundance fitness is 0.019

The reported value for RTSMTEEYRVPDGMVGLIIGRIGEQINKIQQDSGCKVQISPDSGGLPERSVSLTGAPESVQKAKMMLDDIVSR [G22I] in terms of abundance fitness is -0.34

The reported value for RTSMTEEYRVPDGMVGLIIGTGGEQINKIQQDSGCKVQISPDSGGLPERSVSLTGAPESVQKAKMMLDDIVSR [R21T] in terms of abundance fitness is -0.004

The reported value for RTSMTEEYRVPDGMVGLIIGRGGEQIMKIQQDSGCKVQISPDSGGLPERSVSLTGAPESVQKAKMMLDDIVSR [N27M] in terms of abundance fitness is -0.085

The reported value for RTSMTEEYRVPDGMVGLIIGRGGEQINKIQQDSGCKVQISPDSGGLPERSVSLEGAPESVQKAKMMLDDIVSR [T54E] in terms of abundance fitness is -0.135

The reported value for RTSMTEEYRVPDGMVGLIIGRGGEQINKIQQDPGCKVQISPDSGGLPERSVSLTGAPESVQKAKMMLDDIVSR [S33P] in terms of abundance fitness is -1.01

The reported value for RTSMTEEYRVPDGMVGLIIGRGGEQINKIQQDSGCKVQISPYSGGLPERSVSLTGAPESVQKAKMMLDDIVSR [D42Y] in terms of abundance fitness is -0.061

The reported value for RTSMTEEYRVPDGMVGLIIGRGGEQINKIQQDSGCKVQISPDSGGLPERSVSLTEAPESVQKAKMMLDDIVSR [G55E] in terms of abundance fitness is -0.927

The reported value for RTSMTEEYRVPDGMVGLIIGRGGEQINKIQQDSGCKVQISPDSGGLPERSVSLTGAPESVEKAKMMLDDIVSR [Q61E] in terms of abundance fitness is 0.01

The reported value for RTSMTEEYRVPDGMVGLIIGRGGEQINKIQQDSGCKVQISPDSGGLPERSVSLTGAPESVQKAKMMLDDSVSR [I70S] in terms of abundance fitness is -0.504

The reported value for RTSMTEEYRVPDGMVGLIIGRGGEQINKIQQDSGCKVQISPDSGGLPERSVSLTGAPESVQKAKMMLVDIVSR [D68V] in terms of abundance fitness is -0.456

The reported value for RTSMTEEYRVPDGMVGLIIGRGGEQINKIQQDSGCKVQISPDSGGLPERSVSLTGAPESVQKAKMMLDDYVSR [I70Y] in terms of abundance fitness is -0.153

The reported value for RTSMTEEYRVPDGMVGLIIGRGGEQINKIQQDSGCKVQISPDSGGLPERSVSLTGALESVQKAKMMLDDIVSR [P57L] in terms of abundance fitness is -0.316

The reported value for RTSMTEEYRVPDGMVGLIIGRGGEQINKIQQDSGCKVQISPDSGGLPERSVSSTGAPESVQKAKMMLDDIVSR [L53S] in terms of abundance fitness is -0.754

The reported value for RTSMTEEYRVPDGMVGLIIGRGGEQINKIQQDSGCKVQISPDSGGLPERWVSLTGAPESVQKAKMMLDDIVSR [S50W] in terms of abundance fitness is -0.118

The reported value for RTSMTEEYRVPDGMVGLIIGRGGEQINKIQQDSGCKVQISPDSGGLPERSVSRTGAPESVQKAKMMLDDIVSR [L53R] in terms of abundance fitness is -0.854

The reported value for RTSMTEEYRVPDGMVGLIIGRGGEQINKIQQDSGCKVQISPDSGGLPERGVSLTGAPESVQKAKMMLDDIVSR [S50G] in terms of abundance fitness is -0.071

Sourced from the Human Domainome abundance scans (Beltran et al. 2025)
